All values here come from patent US9629822B2.

Kindly supply the reported pIC50 values for the records listed here.
Test system: CHO cells
Assay: CHO cell toxicity, MTS assay, 48 h
Assay type: cell-based, Chinese hamster
Conditions: Cricetulus griseus, CHO, 37° C., MTS reagent, read-out: CHO 48 h IC50 value
Experimental: In each case, the chalcone system 8 was more toxic than the corresponding ring-closed system, 9. The CHO assay was conducted to assess the general toxicity of each flavonoid drug. […] The MTS reagent (Promega Cell Titer 96 Aqueous non-radioactive cell proliferation reagent) was added (20 μL) and the CHO cells were incubated for an additional 4h and then absorbance at 490 nm was measured on a BioTek Synergy MX plate reader. […]
# pIC50: negative log10 of molar concentration; output just the value

Qu. Specify reported pIC50 for the molecule shown: CCOc1ccc(Br)cc1/C=C/C(=O)c1ccccc1O
Ans. 5.14

Qu. Specify reported pIC50 for the molecule shown: CCOc1ccc(Cl)cc1/C=C/C(=O)c1ccccc1O
Ans. 5.17

Qu. For the molecule COc1ccc(Br)cc1-c1oc2cccc(OC)c2c(=O)c1O , give its measured pIC50 value.
Ans. 4.76

Qu. For the molecule COc1ccc(I)cc1/C=C/C(=O)c1ccccc1O , report pIC50.
Ans. 5.17

Qu. Determine from records and report pIC50 for COc1cc(OC)c(-c2oc3ccccc3c(=O)c2O)cc1Br
Ans. 4.74

Qu. Quote pIC50 reported for COc1ccccc1-c1cc(=O)c2c(OCc3ccccc3)cccc2o1 [Compound 11a] please.
Ans. 4.76

Qu. Name the recorded pIC50 of the molecule listed here: COc1ccc(Br)cc1/C=C/C(=O)c1c(O)cccc1OCc1ccccc1
Ans. 5.09

Qu. Given the molecule COc1ccc(Br)cc1-c1cc(=O)c2c(OCc3ccccc3)cccc2o1 [Compound 11b] , write its reported pIC50.
Ans. 4.02

Qu. Specify measured pIC50 for COc1ccc(C)cc1-c1oc2ccccc2c(=O)c1O .
Ans. 4.26

Qu. Look up pIC50 of CCOc1ccc(Br)cc1-c1oc2ccccc2c(=O)c1O and report it.
Ans. 4.87

Qu. Answer with the recorded pIC50 of COc1ccc(Cl)cc1-c1oc2ccccc2c(=O)c1O only.
Ans. 4.60

Qu. Provide measured pIC50 value, entry: COc1ccc(Br)cc1/C=C/C(=O)c1ccccc1O
Ans. 5.06
